# tested on: Cannabinoid receptor 2 (Homo sapiens)
# Sequence (P34972 whole entry): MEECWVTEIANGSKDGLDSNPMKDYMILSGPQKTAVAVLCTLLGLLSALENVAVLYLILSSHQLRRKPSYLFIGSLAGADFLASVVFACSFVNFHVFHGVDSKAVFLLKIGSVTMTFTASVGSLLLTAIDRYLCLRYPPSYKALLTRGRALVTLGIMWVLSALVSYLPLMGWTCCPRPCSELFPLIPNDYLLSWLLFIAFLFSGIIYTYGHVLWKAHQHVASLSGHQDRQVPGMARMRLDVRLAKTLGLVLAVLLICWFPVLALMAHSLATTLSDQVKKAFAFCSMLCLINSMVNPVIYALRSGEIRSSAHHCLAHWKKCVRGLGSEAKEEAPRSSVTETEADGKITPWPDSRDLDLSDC
measurement label: Ki

Return Ki (reported value) for this molecule: `Cc1ccc(-c2cc3ncccc3c3cc(C(=O)NN4CCCCC4)nn23)cc1` > 1000 nM

Return Ki (reported value) for this molecule: Cc1ccc(-c2cc3ncccc3c3cc(C(=O)NC4C5CC(C[C@@H]4C)C5(C)C)nn23)cc1 (stereo not given in full) 240 nM

Return Ki (reported value) for this molecule: Cc1ccc(-c2cc3ncccc3c3cc(C(=O)NC4C5CC6CC(C5)CC4C6)nn23)cc1 (stereo not given) 133 nM

Return Ki (reported value) for this molecule: Cc1ccc(-c2cc3ncccc3c3cc(C(=O)NC[C@@H]4CCC5CC4C5(C)C)nn23)cc1 (stereo not given in full) 120 nM

Return Ki (reported value) for this molecule: Cc1ccc(-c2cc3ncccc3c3cc(C(=O)N[C@H]4C5(C)CCC(C5)C4(C)C)nn23)cc1 (stereo not given in full) 800 nM

Return Ki (reported value) for this molecule: `Cc1ccc(-c2cc3ncccc3c3cc(C(=O)NC4CCCCC4)nn23)cc1` 2130 nM

Return Ki (reported value) for this molecule: Cc1ccc(-c2cc3ncccc3c3cc(C(=O)N[C@H]4CC5CCC4(C)C5(C)C)nn23)cc1 (stereo not given in full) 53 nM

Return Ki (reported value) for this molecule: `Cc1ccc(-c2cc3ncccc3c3cc(C(=O)N[C@@H]4C[C@H](C)CC[C@H]4C(C)C)nn23)cc1` 280 nM

Return Ki (reported value) for this molecule: CC1(C)C2CC[C@@H](CNC(=O)c3cc4c5cccnc5cc(-c5ccc(Cl)cc5Cl)n4n3)C1C2 (stereo not given in full) 67 nM

Return Ki (reported value) for this molecule: `Cc1ccc(-c2cc3ncccc3c3cc(C(=O)NC45CC6CC(CC(C6)C4)C5)nn23)cc1` 33 nM

----------
measurement label: pKi
Please express pKi as -log10 of the molar concentration.

Specify the recorded pKi for Cc1ccc(-c2cc3ncccc3c3cc(C(=O)N[C@H]4C5(C)CCC(C5)C4(C)C)nn23)cc1 (stereo partly specified) , system: Cannabinoid receptor 1 (Homo sapiens). 5.66

Specify the recorded pKi for `Cc1ccc(-c2cc3ncccc3c3cc(C(=O)N[C@@H]4C[C@H](C)CC[C@H]4C(C)C)nn23)cc1` , system: Cannabinoid receptor 1 (Homo sapiens). 5.48

Specify the recorded pKi for CC1=C(C(=O)c2cccc3ccccc23)C2C=CC=C3OC[C@@H](CN4CCOCC4)N1C32 (stereo partly specified) , system: Cannabinoid receptor 1 (Homo sapiens). 7.89

Specify the recorded pKi for `Cc1ccc(-c2cc3ncccc3c3cc(C(=O)NC45CC6CC(CC(C6)C4)C5)nn23)cc1` , system: Cannabinoid receptor 1 (Homo sapiens). 5.24

Specify the recorded pKi for Cc1ccc(-c2cc3ncccc3c3cc(C(=O)N[C@H]4CC5CCC4(C)C5(C)C)nn23)cc1 (stereo partly specified) , system: Cannabinoid receptor 1 (Homo sapiens). 5.15
